# Test system: Rattus norvegicus
# assayExplanation: Oral bioavailability in rat at 5 mg/kg
# Format: ADME, organism-based
# conditionsUsed: in vivo
metric: F

>>> observedmeasurement("C[C@@H]1CN(C(=O)C(=O)c2c[nH]c3c(-n4nccn4)ccnc23)CCN1C(=O)c1ccccc1")
"78%"
>>> observedmeasurement("C[C@@H]1CN(C(=O)C(=O)c2c[nH]c3c(-c4ncco4)ccnc23)CCN1C(=O)c1ccccc1")
"60%"
>>> observedmeasurement("O=C(C(=O)N1CCN(C(=O)c2ccccc2)CC1)c1c[nH]c2c(-n3nccn3)ccnc12")
"65%"
>>> observedmeasurement("C[C@@H]1CN(C(=O)C(=O)c2c[nH]c3c(-c4nccs4)ccnc23)CCN1C(=O)c1ccccc1")
"41%"
